target_or_system: D(3) dopamine receptor (Homo sapiens)
Sequence (P35462 whole entry): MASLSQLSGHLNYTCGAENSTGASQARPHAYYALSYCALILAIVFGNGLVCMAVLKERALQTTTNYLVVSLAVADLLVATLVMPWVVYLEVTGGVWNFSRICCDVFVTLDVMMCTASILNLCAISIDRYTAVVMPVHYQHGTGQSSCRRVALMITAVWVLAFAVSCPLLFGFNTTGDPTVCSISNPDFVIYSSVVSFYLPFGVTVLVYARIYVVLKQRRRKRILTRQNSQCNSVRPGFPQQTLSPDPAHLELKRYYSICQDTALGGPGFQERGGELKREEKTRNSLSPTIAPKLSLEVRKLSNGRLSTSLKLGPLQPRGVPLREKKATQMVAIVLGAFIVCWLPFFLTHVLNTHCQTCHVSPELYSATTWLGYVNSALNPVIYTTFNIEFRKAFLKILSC
procedure_details: Displacement of [3H]-spiperone from human dopamine D3 receptor expressed in CHO-K1 cell membranes after 90 mins by liquid scintillation counter method
pKi: −log10 of the molar value.
Listing of entries alongside the reported pKi.
readout_kind: pKi

[[record]]
compound = "Cn1c(SCCCN2CC3CCN(c4cccc(C#N)c4)C3C2)nnc1-c1cnccn1 (racemic)"
readout_kind = "pKi"
result = 8.70

[[record]]
compound = "Cc1ncoc1-c1nnc(SCCCN2CC3CCN(c4ccc(C(F)(F)F)cc4)C3C2)n1C (stereo in doubt; 7a)"
readout_kind = "pKi"
result = 8.70

[[record]]
compound = "Cc1ncoc1-c1nnc(SCCCN2CC3CCN(c4ccc(C(F)(F)F)cc4)C3C2)n1C (stereo in doubt; 7b)"
readout_kind = "pKi"
result = 8.50


The reported numbers originate from ChEMBL document CHEMBL3774368.
